- tested target: Regulator of G-protein signaling 7 (Homo sapiens, UniProt P49802)
- assay notes: RGS7-Galphao binding modulators, SAR follow-up, biochemical, multiplexed bead flow cytometry, SAR compounds (AID 2296)
- protocol conditions: inactive by the depositor's call
readout name: EC50

INPUT: What does the record list as EC50 for CCOc1ccccc1-c1c2cc(O)c(=O)cc-2oc2cc(O)c(O)cc12 ?
OUTPUT: 3.57 µM

----------
- tested target: Regulator of G-protein signaling 7 (Homo sapiens, UniProt P49802)
- Sequence (P49802 whole entry): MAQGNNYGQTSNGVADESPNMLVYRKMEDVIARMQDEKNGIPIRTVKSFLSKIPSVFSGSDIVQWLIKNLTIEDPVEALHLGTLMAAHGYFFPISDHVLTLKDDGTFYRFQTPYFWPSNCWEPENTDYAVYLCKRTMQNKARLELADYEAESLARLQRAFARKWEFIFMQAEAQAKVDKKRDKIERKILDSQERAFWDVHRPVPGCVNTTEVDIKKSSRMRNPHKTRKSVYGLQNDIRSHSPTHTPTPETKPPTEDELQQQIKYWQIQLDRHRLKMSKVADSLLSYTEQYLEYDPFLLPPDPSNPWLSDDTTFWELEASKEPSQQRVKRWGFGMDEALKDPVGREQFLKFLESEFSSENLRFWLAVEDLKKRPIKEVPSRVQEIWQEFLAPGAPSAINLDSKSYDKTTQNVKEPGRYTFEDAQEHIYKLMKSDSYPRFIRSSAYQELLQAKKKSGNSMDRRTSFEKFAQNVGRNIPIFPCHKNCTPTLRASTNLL
- assay notes: RGS7-Galphao binding modulators, SAR follow-up, biochemical, multiplexed bead flow cytometry, SAR compounds (AID 2296)
pEC50: −log10 of the molar value.
# pEC50 >= 6 gives Yes, anything below gives No

| molecule | answer label |
| --- | --- |
| NS(=O)(=O)c1ccc(N=NCc2ccc(O)c(O)c2O)c([N+](=O)[O-])c1 | Yes |
| O=C(NCCCN1CCOCC1)c1sc2cc([N+](=O)[O-])ccc2c1Cl | No |
| Cc1cccc(N2CCN(C(=O)CN3CCc4nc(C)cc(C)c4C3=O)CC2C)c1 (centres undefined) [KUC103675N] | No |
| Cc1[nH]n(-c2ccccc2)c(=S)c1C=NCCCN=Cc1c(C)[nH]n(-c2ccccc2)c1=S | No |
| O=C(Cc1csc(N2CCOCC2)n1)NN=Cc1ccc(O)c(O)c1O [SMR000369439] | Yes |
| CCN=c1scc(C)n1N=Cc1ccc(O)c(O)c1O | Yes |

INPUT: Quick check: does CCC(=O)NC(c1ccc(C)cc1)c1cc([N+](=O)[O-])c2cccnc2c1O (centres undefined) [MLS000553854] have pEC50 greater than or equal to 6?
OUTPUT: No

INPUT: Also, Cc1cccc(N2CCN(C(=O)COc3nsc4nc(C)cc(C)c34)CC2C)c1 (centres undefined) please.
OUTPUT: No

INPUT: Would you kindly repeat that for O=C(COc1ccccc1C(=O)NN=Cc1ccc(O)c(O)c1)NN=Cc1ccc(O)c(O)c1 ?
OUTPUT: No

Measured values drawn from BindingDB's records for doi:10.7270/Q2416VG3 for this set.
